# IC50 per entry for GSK 3α (Homo sapiens (Human))
Could you give the number and then its unit, please?

- structure_smiles_string: "COCCOCCOCCOc1cc(Nc2nccc(Oc3ccc(NC(=O)Nc4cc(C(C)(C)C)cc(NS(C)(=O)=O)c4OC)c4ccccc34)n2)cc(OC)c1Cl"
  IC50: "4.34 µM"
- structure_smiles_string: "C#Cc1cc(Nc2nccc(Oc3ccc(NC(=O)Nc4cc(C(C)(C)C)cc(C(=O)NC)c4OC)c4ccccc34)n2)cc(C(=O)NCCN2CCOCC2)c1"
  IC50: "1.63 µM"
- structure_smiles_string: "C#Cc1cc(Nc2cc(Oc3ccc(NC(=O)Nc4cc(C(C)(C)C)cc(C(N)=O)c4OC)c4ccccc34)ccn2)cc(C(=O)NCCOCCOCCOC)c1"
  IC50: "8.78 µM"
- structure_smiles_string: "C#Cc1cc(Nc2cc(Oc3ccc(NC(=O)Nc4cc(C(C)(C)C)cc(NS(C)(=O)=O)c4OC)c4ccccc34)ccn2)cc(C(=O)N[C@@H](C)COCCOCCOC)c1"
  IC50: "11.7 µM"
- structure_smiles_string: "COCCOCCOCCOc1cc(Nc2nccc(Oc3ccc(NC(=O)Nc4cc(C(C)(C)C)cc(C(=O)NCC(=O)OC)c4OC)c4ccccc34)n2)cc(OC)c1"
  IC50: "1.52 µM"

Here is the next item to consider.
Which IC50 value is on record for COc1c(NC(=O)Nc2ccc(Oc3ccnc(Nc4ccccc4)c3)c3ccccc23)cc(C(C)(C)C)cc1NS(=O)(=O)N1CCOCC1 ?
14.4 µM
